B1: CDC14A (parent)
chain: LWVQGDIFRSKLKNRPSSEGSINK

Variants of: B1
Test: protein stability index of a GFP-peptide fusion (GPS, HEK-293T) (PSI 1-6); higher = more stable;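 further: lentivirally expressed fusions sorted by FACS into six bins by GFP to DsRed ratio, PSI derived from sequencing read proportions per bin multiplied by bin number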
Settings: c terminus: a fixed tail appended
measure: protein stability index

In [3]: df
Out[3]:
    mutations                  measure  recordedvalue
 0       K11D  protein stability index           2.38
 1       E19A  protein stability index           2.33
 2        V3W  protein stability index           2.55
 3       S21M  protein stability index           2.15
 4       S10P  protein stability index           2.27
 5        D6L  protein stability index           1.71
 6       S18F  protein stability index           2.37
 7        I7V  protein stability index           2.98
 8        R9F  protein stability index           2.57
 9       S18V  protein stability index           2.25
10       P16H  protein stability index           2.52
11       P16S  protein stability index           2.52
12       L12F  protein stability index           2.29
13       K24S  protein stability index           2.37
14        D6M  protein stability index           2.61
15        V3Q  protein stability index           3.32
16       P16L  protein stability index           1.57
17       S10F  protein stability index           2.05
18       K11L  protein stability index           2.23
19       N14Q  protein stability index           2.36
20        Q4E  protein stability index           2.19
21       I22P  protein stability index           2.63
